Molecular target: pooled human IgG (human IgG1, 2, 3 and 4)
Parameter Enzyme Activity Endpoint Assay: IgG: see the listing below.
Give just the number in ng/µL; leave the unit off.

Sample records with Enzyme Activity Endpoint Assay: IgG:
PRT-545 (protein) MANQEIRYSEETPKTITSVWTKGVTPPTDFIKNEDVLHAPYIANQGWYDITKTFNGKDDLLCGAATAGNMLHWWFDQNKEEIERYLKKHPEKQKINFNGEQMFDVKEAIDTKDSQTDSALFEYFKDKAFPYLSTKHLGVFPDHVIDMFINGYRLSLTNHGPTPVKRGTKDPRGGIFDAVFTRGDQSKLLTSRHDFKEKTLKEISDLIKQELTEGKALGLSHTYANVRINHVINLWGADFDSEGNLEAIYVTDSDSNASIGMKKYYVGVNSAGKVAISAKEIEGDNIGAQVLGLFTLSTGQDIWEQTNLEHHHHHH = 0
PRT-383 (protein) MVTSVWTKGVTPPTNFTYGEDVLHAPYVANQGWYDITKTFNGKDDLLCGAATAGNMLHWWFDQNKEQIENYLKKHPEKQKINFNGEQMFDVKEAIDTKDSQLDSKLFDYFKEKAFPYLSTKHLGVFPDHVIDMFINGYRLSLTNHGPTPVKRGSKDPRGGIFDAVFTRGDQSKLLTNRHDFKEKTLKEISDLIKQELTEGKALGISHTYANVRINHVINLWGADFDAEGNLEAIYVTDSDSNASIGMKKYFVGVNSNGKVAISAKEIEEDNIGAQVLGLFTLSTGQDIWNQTN = 0
PRT-543 (protein) MANQEIRYSKNENPNVTIKWVHGIGEPTQSEKEKIEFWWYETTTTKFFNNRKVDPLGDGNQCWAKTDSNMLHWWFVQNEENINQYIEKKNITGKINFNGEQMFDVKEGIDDNQEPEKSYIANTFRTKKAHNLSTKHKGDYIINGLSWYLYGLNNFKNAHGPTPVKKKPKFYGPALFKDVFNRGDGNTPIIVETDFKEYTKKEFEDTLSAALDSKKAIGINIYGSNVDYQHAITLWGAAFDEEENIIAIYVVDNNFKFENRIFPYGIWYEKEGRPYLFNYEINSFVKNRYVGEITTLDKGEAQWQETNLEHHHHHH = 1470

Attention now shifts to the item below.
Query string: Would you kindly share the measured Enzyme Activity Endpoint Assay: IgG for PRT-248 (protein) MVTSVWTKGVTPPTNFTYGEDVLHAPYVANQGWYDITKTFNGKDDLLCGAATAGNMLHWWFDQNKEQIENYLKKHPEKQKINFNGEQMFDVKEAIDTKDSQLDSKLFEYFKEKAFPNLSTKHLGVFPDHVIDMFINGYRLSLLNHGPTPVKRGSKDPRGGIFDAVFTRGDQSKLLTNRHDFKEKTLKEISDLIKQELTEGKALGISHTYANVRINHVINLWGADFDAEGNLEAIYVTDSDSNASIGMKKYFVGVNSSGKVAISAKEIEEDNIGAQVLGLFTLSTGQDIWNQTN ?
Result string: 0
